biological target: human orexin-1 receptor (hOX1R) (Homo sapiens); assay: FLIPR Ca2+ Flux Assay, CHO cells expressing hOX1R; details: agonist 70 pM Ala-6,12 orexin-A
observable: pIC50
In textbook form, pIC50 equals minus log to base ten of the concentration in mol/L.

| compound | pIC50 |
| --- | --- |
| C[C@@H]1CC[C@@H](Oc2nccc(C(F)(F)F)c2CO)CN1C(=O)c1ccccc1-n1nccn1 | 7.09 |

Request: Given CC(O)c1cccnc1O[C@@H]1CC[C@@H](C)N(C(=O)c2ccccc2-n2nccn2)C1 (some centres unmarked) , state its recorded pIC50.
Response: 7.19

Request: Given `Cc1ccc(-n2nccn2)c(C(=O)N2C[C@H](Oc3ncccc3C(C)(C)O)CC[C@H]2C)c1` , state its recorded pIC50.
Response: 7.30

Request: Given `C[C@@H]1CC[C@@H](Oc2ncccc2C(C)(C)O)CN1C(=O)c1cc(F)ccc1-n1nccn1` , state its recorded pIC50.
Response: 6.92

Request: Given `C#C[C@H](O)c1cccnc1O[C@@H]1CC[C@@H](C)N(C(=O)c2ccccc2-n2nccn2)C1` , state its recorded pIC50.
Response: 6.23

Request: Given COc1ccnc(O[C@@H]2CC[C@@H](C)N(C(=O)c3ccccc3-n3nccn3)C2)c1C(C)(C)O (single isomer, unassigned) [Example 28] , state its recorded pIC50.
Response: 7.03

Request: Given `C[C@@H]1CC[C@@H](Oc2ncccc2C(C)(C)O)CN1C(=O)c1cc(CF)ccc1-n1nccn1` , state its recorded pIC50.
Response: 7.52

Request: Given `Cc1ccc(C(C)(C)O)c(O[C@@H]2CC[C@@H](C)N(C(=O)c3ccccc3-n3nccn3)C2)n1` , state its recorded pIC50.
Response: 7.26

---

Each entry below lists one item and its recorded IC50 value.
target: human orexin-1 receptor (hOX1R) (Homo sapiens); assay: FLIPR Ca2+ Flux Assay, CHO cells expressing hOX1R; details: agonist 70 pM Ala-6,12 orexin-A
Reply numerically in nM, unit not repeated.

| structure-string | IC50 (nM) |
| --- | --- |
| C[C@@H]1CC[C@@H](Oc2ncccc2C(C)(C)O)CN1C(=O)c1cccc(F)c1-c1ncccn1 | 609 |

Request: Given `C[C@H](O)c1cccnc1O[C@@H]1CC[C@@H](C)N(C(=O)c2ccccc2-n2nccn2)C1` , state its recorded IC50.
Response: 76

Request: Given `C[C@@H]1CC[C@@H](Oc2ncccc2C(C)(C)O)CN1C(=O)c1ccsc1-n1nccn1` , state its recorded IC50.
Response: 18

---

target: UniProt O43614; test: FLIPR Ca2+ Flux Assay, CHO cells expressing hOX2R; conditions: agonist 70 pM Ala-6,12 orexin-A
Sequence (O43614 whole entry): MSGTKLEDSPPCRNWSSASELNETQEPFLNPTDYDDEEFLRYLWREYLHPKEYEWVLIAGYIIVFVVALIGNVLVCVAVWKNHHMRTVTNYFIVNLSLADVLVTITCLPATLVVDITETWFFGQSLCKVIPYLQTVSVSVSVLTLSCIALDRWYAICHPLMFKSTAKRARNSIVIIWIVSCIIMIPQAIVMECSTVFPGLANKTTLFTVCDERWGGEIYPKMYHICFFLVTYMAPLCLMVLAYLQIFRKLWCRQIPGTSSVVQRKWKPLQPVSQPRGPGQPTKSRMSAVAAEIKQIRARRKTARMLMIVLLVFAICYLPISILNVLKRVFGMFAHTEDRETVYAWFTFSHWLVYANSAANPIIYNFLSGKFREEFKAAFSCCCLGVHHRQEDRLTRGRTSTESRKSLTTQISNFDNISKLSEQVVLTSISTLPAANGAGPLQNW
Field 'label' (enum: y / n). Set to y when IC50 is strictly under 30 nM; else n.

Field: example entries. Status: answers known.
| compound | system-under-test | answer-label |
| --- | --- | --- |
| CC(O)c1cccnc1O[C@@H]1CC[C@@H](C)N(C(=O)c2ccccc2-n2nccn2)C1 (stereo partly drawn) [Example 31] | UniProt O43614 | y |
| Cc1ccc(CO)c(O[C@@H]2CC[C@@H](C)N(C(=O)c3ccccc3-n3nccn3)C2)n1 [Example 45] | UniProt O43614 | y |
| C[C@@H]1CC[C@@H](Oc2ncccc2C(C)(C)O)CN1C(=O)c1ccccc1N1CCCC1 [Example 12] | UniProt O43614 | n |
| C[C@@H]1CC[C@@H](Oc2ncccc2C(C)(C)O)CN1C(=O)c1cc(C#N)ccc1-n1nccn1 [Example 7] | UniProt O43614 | n |

Request: Please check: IC50 for C[C@@H]1CC[C@@H](Oc2ncccc2[C@H](O)C(F)(F)F)CN1C(=O)c1ccccc1-n1nccn1 [Example 36] , strictly under 30 nM or not?
Response: y

Request: Please check: IC50 for CC(O)c1c(C(F)(F)F)ccnc1O[C@@H]1CC[C@@H](C)N(C(=O)c2ccccc2-n2nccn2)C1 (stereo partly drawn) [Example 38] , strictly under 30 nM or not?
Response: n

Request: Please check: IC50 for COc1ccc(C(=O)N2C[C@H](Oc3ncccc3C(C)(C)O)CC[C@H]2C)c(C2CC2)c1 [Example 15] , strictly under 30 nM or not?
Response: n

Request: Please check: IC50 for C[C@@H]1CC[C@@H](Oc2ncccc2C(C)(C)O)CN1C(=O)c1ccccc1-c1ncccn1 [Example 23] , strictly under 30 nM or not?
Response: n

Request: Please check: IC50 for C[C@@H]1CC[C@@H](Oc2ncccc2C(C)(C)O)CN1C(=O)c1cc(F)ccc1-n1nccn1 [Example 5] , strictly under 30 nM or not?
Response: n

Request: Please check: IC50 for C[C@@H]1CC[C@@H](Oc2ncccc2C(C)(C)O)CN1C(=O)c1sccc1-c1ncccn1 [Example 24] , strictly under 30 nM or not?
Response: n

Request: Please check: IC50 for Cc1ccnc(O[C@@H]2CC[C@@H](C)N(C(=O)c3ccccc3-n3nccn3)C2)c1CO [Example 41] , strictly under 30 nM or not?
Response: y

---

Each entry below lists one item and its recorded log10(IC50) value.
target: human orexin-1 receptor (hOX1R) (Homo sapiens, UniProt O43613); assay: FLIPR Ca2+ Flux Assay, CHO cells expressing hOX1R; details: agonist 70 pM Ala-6,12 orexin-A
Sequence (O43613 whole entry): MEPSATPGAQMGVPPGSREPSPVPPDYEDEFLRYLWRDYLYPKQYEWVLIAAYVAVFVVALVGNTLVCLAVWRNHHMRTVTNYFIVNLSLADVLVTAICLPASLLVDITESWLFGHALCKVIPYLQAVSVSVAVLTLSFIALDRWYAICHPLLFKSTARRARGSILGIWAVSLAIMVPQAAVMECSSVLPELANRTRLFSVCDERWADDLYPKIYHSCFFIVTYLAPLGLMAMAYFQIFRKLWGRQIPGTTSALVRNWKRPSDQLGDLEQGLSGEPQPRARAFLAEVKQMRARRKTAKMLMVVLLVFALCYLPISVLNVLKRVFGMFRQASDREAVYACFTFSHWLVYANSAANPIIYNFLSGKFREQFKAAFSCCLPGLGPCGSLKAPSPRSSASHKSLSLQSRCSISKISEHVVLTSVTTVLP
The base-10 logarithm of IC50, taken with IC50 in nM, is what appears here.

| compound | observed-result |
| --- | --- |
| CC[C@H](O)c1cccnc1O[C@@H]1CC[C@@H](C)N(C(=O)c2ccccc2-n2nccn2)C1 | 2.36 |

Request: // lookup log10(IC50) | system=human orexin-1 receptor (hOX1R) (Homo sapiens, UniProt O43613) | key= COc1ccnc(O[C@@H]2CC[C@@H](C)N(C(=O)c3ccccc3-n3nccn3)C2)c1C(C)(C)O [Example 27]
Response: 2.60

Request: // lookup log10(IC50) | system=human orexin-1 receptor (hOX1R) (Homo sapiens, UniProt O43613) | key= `C[C@@H]1CC[C@@H](Oc2ncccc2C(C)(C)O)CN1C(=O)c1cc(Cl)ccc1-n1nccn1`
Response: 2.15

Request: // lookup log10(IC50) | system=human orexin-1 receptor (hOX1R) (Homo sapiens, UniProt O43613) | key= `C[C@@H]1CC[C@@H](Oc2ncccc2[C@@H](C)O)CN1C(=O)c1ccccc1-n1nccn1`
Response: 3.06

Request: // lookup log10(IC50) | system=human orexin-1 receptor (hOX1R) (Homo sapiens, UniProt O43613) | key= `C[C@@H]1CC[C@@H](Oc2ncccc2CO)CN1C(=O)c1ccccc1-n1nccn1`
Response: 2.97

Request: // lookup log10(IC50) | system=human orexin-1 receptor (hOX1R) (Homo sapiens, UniProt O43613) | key= `COc1ccnc(O[C@@H]2CC[C@@H](C)N(C(=O)c3ccccc3-n3nccn3)C2)c1CO`
Response: 3.07

Request: // lookup log10(IC50) | system=human orexin-1 receptor (hOX1R) (Homo sapiens, UniProt O43613) | key= `C[C@@H]1CC[C@@H](Oc2ncccc2C(C)(C)O)CN1C(=O)c1sccc1-c1ncccn1`
Response: 1.89

Request: // lookup log10(IC50) | system=human orexin-1 receptor (hOX1R) (Homo sapiens, UniProt O43613) | key= `C[C@@H]1CC[C@@H](Oc2ncccc2CO)CN1C(=O)c1ccccc1-n1ncnn1`
Response: 3.26

Request: // lookup log10(IC50) | system=human orexin-1 receptor (hOX1R) (Homo sapiens, UniProt O43613) | key= `Cc1ccc(C(=O)N2C[C@H](Oc3ncccc3C(C)(C)O)CC[C@H]2C)c(C2CC2)c1`
Response: 2.54

Request: // lookup log10(IC50) | system=human orexin-1 receptor (hOX1R) (Homo sapiens, UniProt O43613) | key= `C[C@@H]1CC[C@@H](Oc2ncccc2C(C)(C)O)CN1C(=O)c1ccsc1-c1ncccn1`
Response: 1.08

Request: // lookup log10(IC50) | system=human orexin-1 receptor (hOX1R) (Homo sapiens, UniProt O43613) | key= `C[C@@H]1CC[C@@H](Oc2ncccc2C(C)(C)O)CN1C(=O)c1ccccc1-n1ncnn1`
Response: 2.19

Request: // lookup log10(IC50) | system=human orexin-1 receptor (hOX1R) (Homo sapiens, UniProt O43613) | key= `C[C@@H]1CC[C@@H](Oc2ncccc2C(C)(C)O)CN1C(=O)c1sccc1-n1nccn1`
Response: 2.17
